The reported numbers originate from ChEMBL document CHEMBL3507680.

assay: Human HepG2 cell viability assay in 384 well format; type: toxicity, cell-based; set-up: dose 125 nL, time 70.5 hour; concentration not given beside the values; details: HepG2 cells, read-out: Inhibition
Parameter: cytotoxicity at 70.5 h (%)
Give bare numbers, in %.

molecule=Cc1ccc(NCc2ncc(C(C)(C)C)o2)c(Cl)c1 unit_of_measure=% reported_value=1.61
molecule=CC1(C)CN(C(=O)Nc2ccc(Cn3cccn3)cc2)CCO1 unit_of_measure=% reported_value=-3.49
molecule=Cc1ccc(N2CC[C@@H]3[C@@H]2CCN3C(=O)Cc2cccs2)nn1 unit_of_measure=% reported_value=-3.66
molecule=COc1cc(C)nc(N2CCN(C(=O)CN(C)C(C)C)CC2)n1 unit_of_measure=% reported_value=29
molecule="O=C1NC(C(=O)NCc2cccnc2Oc2ccccc2F)CO1 (configuration not stated)" unit_of_measure=% reported_value=-18.5
molecule="CCOc1ccccc1CNC(=O)NCC(c1cnn(C)c1)N(C)C (configuration not stated)" unit_of_measure=% reported_value=-9.13
molecule=CNC(=O)Cn1cc(Nc2cccc(F)c2C#N)cn1 unit_of_measure=% reported_value=-32.8
molecule="CCOCc1cnc2n1CCN(C(=O)C1=CCCC1)C2C (configuration not stated)" unit_of_measure=% reported_value=-2.23

Hello, I would appreciate it if you could give cytotoxicity at 70.5 h for each entry below.
1. Cc1cnn(CC2CCCN2C(=O)c2ccc3[nH]nnc3c2)c1 (configuration not stated)
2. CC(CCN1CCCC1=O)NCc1cnc(C2CCC2)s1 (configuration not stated)
3. Cc1nn(-c2ccccc2)c(C)c1CNC(=O)NC1CC1
4. Fc1cnc(N2CC3(CCN(Cc4ccsc4)C3)C2)nc1

Reply |
1. 17.5
2. -6.2
3. -3.17
4. -6.5

---

assay: Human HepG2 cell viability assay in 384 well format; format: toxicity, cell-based; parameters: dose 125 nL, time 70.5 hour; concentration not given beside the values; details: HepG2 cells, read-out: Inhibition
Parameter: cytotoxicity at 70.5 h (%)
One number for each entry, in %.

Field: example entries. Status: answers known.
compound="Cc1ccc(Oc2ccc(NC(=O)NCC3CCOC3)cn2)cc1C (stereo unspecified)" unit_of_measure=% reported_value=4.23
compound="CN(Cc1noc(C(C)(C)C)n1)C1CCCN(c2cccnn2)C1 (stereo unspecified)" unit_of_measure=% reported_value=44.8

Each of the following entries comes with a recorded value; kindly state cytotoxicity at 70.5 h for each.
1. COC(=O)c1ccccc1NC(=O)c1c(C)cn(C)c1CC(=O)O
2. CN(C)c1ccc(C(=O)N2CCCC(n3cccn3)C2)cn1 (stereo unspecified)
3. O=S(=O)(c1ccc(F)cc1Cl)N1CCCC1c1ccncc1 (stereo unspecified)
4. Cn1ncc(NCc2cccc(COC(C)(C)C)c2)c(Cl)c1=O

Reply |
18.3
15
-6.79
7.28

---

assay: Human HepG2 cell viability assay in 384 well format; type: toxicity, cell-based; design: dose 125 nL, time 70.5 hour; concentration not given beside the values; conditions: HepG2 cells, read-out: Inhibition
Parameter: cytotoxicity at 70.5 h (%)
Give bare numbers, in %.

compound="Cc1nnc2ccc(N3CCC4(CCOC4)C3)nn12 (stereo unspecified)" reported_value=-3.17
compound=Cc1sc2nc(CCN)nc(N3CCN(S(C)(=O)=O)CC3)c2c1C reported_value=-8.4
compound=CCC(=O)N1CCN(c2cc(N(C)C)cnn2)CC1 reported_value=-10.5
compound=Cc1cccnc1[C@]1(O)CC[C@H]2CN(Cc3cccc(Cl)c3Cl)C[C@H]21 reported_value=-3.29

Your task in this section: give cytotoxicity at 70.5 h for each listed record.
1. CN(Cc1csc(-c2cnn(C)c2)n1)CC1CCN(CCO)CC1
2. CCc1nc(CN2CCCC(NCc3cc(C)no3)C2)no1 (stereo unspecified)
3. CNc1nc(C(=O)N2CCC3(CCCN(CC4CC4)C3=O)C2)cs1 (stereo unspecified)
4. Cc1cc(N(C)C)nc(N2CCCC2c2cccnc2)n1 (stereo unspecified)
5. O=C1NCCc2c1sc1ccc(C(=O)N3CC[C@H](CO)[C@H](O)C3)cc21
6. Cc1cccc(N2CCN(C(=O)Cc3ccccc3O)C(C)C2)n1 (stereo unspecified)

Reply |
1. 18.5
2. -8.45
3. -1.68
4. -1.47
5. -2.24
6. -1.34

Ask | What cytotoxicity at 70.5 h value was documented for this compound, `O=C(NCCOc1ncc(Cl)cc1Cl)NCc1ccncc1` ?
Reply | -1.68

---

assay: Human HepG2 cell viability assay in 384 well format; type: toxicity, cell-based; design: dose 125 nL, time 70.5 hour; concentration not given beside the values; settings: HepG2 cells, read-out: Inhibition
Parameter: cytotoxicity at 70.5 h
Include the unit after the number when you answer.

A selection of reference data follows.
molecule=O=C(CO)N1CCc2onc(Cn3cccn3)c2C1 reported_value=-13.8%
molecule=CCn1nc2c(cc1=O)CN(Cc1nc(-c3ccccn3)no1)CC2 reported_value=-1.12%

Go through the items and report each one's cytotoxicity at 70.5 h.
1. Cc1ccc(-c2c(C(=O)NC3CCN(C)CC3)csc2C)cc1
2. COCCN1CCO[C@H]2CN(C(=O)c3cccs3)C[C@H]21

Reply |
-9.95%
-7.52%

Working through the 2 molecules below one at a time, give cytotoxicity at 70.5 h for each.
1. CCC(C)C(=O)NCc1cccc(N2CCCCC2=O)c1 (stereo unspecified)
2. Cc1cccc(-n2nc(CC(C)C)nc2CS(C)(=O)=O)c1

Reply |
1. -4.37%
2. -2.84%

---

test: Human HepG2 cell viability assay in 384 well format; assay type: toxicity, cell-based; design: dose 125 nL, time 70.5 hour; concentration not given beside the values; settings: HepG2 cells, read-out: Inhibition
Parameter: cytotoxicity at 70.5 h

Some solved cases for reference:
compound=O=C(c1cccs1)N1CC[C@@H](N2CCOCC2)[C@@H]1Cc1ccccc1 parameter="cytotoxicity at 70.5 h" reported_value=-15.7%
compound=CC(C)[C@H](NS(C)(=O)=O)C(=O)NCc1cc(-c2ccco2)nn1C parameter="cytotoxicity at 70.5 h" reported_value=7.38%
compound=Cc1ccccc1[C@@H]1CN(Cc2nc3ncccn3n2)C[C@H]1C(=O)O parameter="cytotoxicity at 70.5 h" reported_value=3.89%
compound=COc1ccccc1C(=O)N1CCN(C(=O)CCn2ccnc2)CC1 parameter="cytotoxicity at 70.5 h" reported_value=-5.01%
compound="CC(O)CN1CCC(CNCc2cccc(Cl)c2)CC1 (stereo unspecified)" parameter="cytotoxicity at 70.5 h" reported_value=12.3%

Ask | Entry Cc1cnn(CCNc2ncnc3c2CCN(CC2CCOC2)CC3)c1 (stereo unspecified) : reported cytotoxicity at 70.5 h = ?
Reply | -2.24%

---

experiment: Human HepG2 cell viability assay in 384 well format; assay type: toxicity, cell-based; design: dose 125 nL, time 70.5 hour; concentration not given beside the values; settings: HepG2 cells, read-out: Inhibition
Parameter: cytotoxicity at 70.5 h (%)
One number for each entry, in %.

Here are 8 compounds together with their reported answers.
compound=N#CCCn1cnc2c(F)cc(Br)cc2c1=O parameter="cytotoxicity at 70.5 h" reported_value=-3.98
compound="CCS(=O)(=O)N1CCC2(CC1)CC(Oc1ccccn1)CO2 (configuration not stated)" parameter="cytotoxicity at 70.5 h" reported_value=-18.2
compound="Cc1cccc(C(=O)N2CCCC2c2c(C)n[nH]c2C)c1 (configuration not stated)" parameter="cytotoxicity at 70.5 h" reported_value=-2.31
compound="Cc1nc(C)c(CN2CCOC(CN(C)c3cccnn3)C2)s1 (configuration not stated)" parameter="cytotoxicity at 70.5 h" reported_value=-8.03
compound=COCCN1CCC(CNC(=O)C2(C#N)CCCC2)CC1 parameter="cytotoxicity at 70.5 h" reported_value=17.6
compound=Cn1nccc1-c1ccc2nc(C3CCNCC3)nn2c1 parameter="cytotoxicity at 70.5 h" reported_value=10.5
compound=Cc1ccc(C(=O)N2CC3(CCNCC3)c3cc(Cl)ccc32)cn1 parameter="cytotoxicity at 70.5 h" reported_value=-7.61
compound="CN(C)C(=O)N1CCC2(CC(=O)N(c3cccc(C#N)c3)C2)C1 (configuration not stated)" parameter="cytotoxicity at 70.5 h" reported_value=-5.09

// for each compound below, give its cytotoxicity at 70.5 h
1. CCN(CC)C(=O)[C@@H]1C[C@@H](N)CN1C(=O)c1cc2c([nH]c1=O)CCC2
2. CCn1cc(CNc2ccc(Br)c(OC)c2)cn1
3. Cc1cnc(N2CCCC(c3ccccc3)C2)nc1-c1ncnn1C (configuration not stated)
4. O=C(c1cnc(C2CC2)s1)N1CCCCC1Cn1cccn1 (configuration not stated)
5. CCCc1c(C(=O)N2CCN(c3ncccn3)CC2)cnn1C
6. COc1ccc(Br)cc1CN(C)c1nc2c(cnn2C)c(=O)[nH]1

Reply |
1. -10.8
2. 4.22
3. -9.97
4. 0.664
5. -10.6
6. -10.6

Give me cytotoxicity at 70.5 h for each of these compounds, listed below.
1. Cc1nn(C)c(C)c1-c1ccc(=O)n(C(C)C(=O)NC2CCCCC2)n1 (configuration not stated)
2. CCOC[C@@H]1CC[C@H]2[C@H](CCN2Cc2c(C)noc2C)O1
3. O=C(N[C@@H]1CN(Cc2cccc3[nH]ccc23)C[C@H]1O)c1cscn1
4. CNc1cc(CCNC(=O)CC(C)C)nc(-c2ccccn2)n1

Reply |
-17.2
-0.0549
-4.99
-7.32

Please give cytotoxicity at 70.5 h, item by item, for the list that follows.
1. COCCN1C(=O)[C@]2(CC[C@@H]3CN(C(=O)NC(C)C)C[C@@H]32)N=C1C
2. O=C(NCC1CCCCO1)c1ccc(-c2cccs2)[nH]c1=O (configuration not stated)
3. O=C1CC(C(=O)O)C2(CCN(C(=O)Nc3ccccc3Cl)CC2)N1 (configuration not stated)
4. COc1cc2nc(C)n(CC(=O)NCCN(C)C)c(=O)c2cc1OC
5. CN(C)C(=O)c1ccc(C2CCCNC2)nc1 (configuration not stated)
6. CN1CCC(N(C)C[C@H]2CC[C@@H](Cc3ccc4occc4c3)O2)CC1
7. COc1ccc(C)cc1C(=O)N1CCCC(n2cncn2)C1 (configuration not stated)
8. O=C1OCCCN1Cc1nc(-c2ccncc2)no1

Reply |
1. 25.4
2. -0.0205
3. -2.72
4. -17.2
5. -6.57
6. 3.05
7. -3.25
8. -12.6

Dear reader, for each entry below, please note its cytotoxicity at 70.5 h.
1. Cc1nc(C2CCCN2C(=O)COc2ccccc2)ncc1C(N)=O (configuration not stated)
2. CN(C)C(=O)COCc1cncc2c1CCN(Cc1nccn1C)C2
3. CC(C)C(O)C1(CNC(=O)Nc2ccc(CN3CCOC3=O)cc2)CC1 (configuration not stated)
4. CC(Cn1cncn1)NCc1n[nH]c2c1CCCCC2 (configuration not stated)

Reply |
1: -4.1; 2: -7.66; 3: -11.3; 4: -10.2
